These measurements were taken from paper PMC7660650.

Target: Gal4-HNF4α (human HNF4α LBD) (Homo sapiens, UniProt P41235)
Construct: uniprot entry: P41235-1, residues 142-377; expressed in transfected cells; host or cells: HEK293T
Sequence (P41235 142-377): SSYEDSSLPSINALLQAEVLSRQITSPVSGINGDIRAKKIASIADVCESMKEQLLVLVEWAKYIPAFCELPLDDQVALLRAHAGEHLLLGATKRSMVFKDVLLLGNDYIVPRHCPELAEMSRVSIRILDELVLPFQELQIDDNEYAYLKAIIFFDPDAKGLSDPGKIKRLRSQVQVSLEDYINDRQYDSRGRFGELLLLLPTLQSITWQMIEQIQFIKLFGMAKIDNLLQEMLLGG
Procedure text: Hybrid Gal4-HNF4α reporter gene assay in transiently transfected HEK293T cells
Assay type: cell-based
Condition info: Table S1, primary screening, 50 µM
I'd appreciate it if you marked entries true when HNF4a-screening_activity_(mean_of_n=2) is lower than 1 and false when it is not.

CCOC(=O)C1c2ccccc2Oc2ccccc21 [Prestw-Frag-1348, CCOC(=O)C1c2ccccc2Oc2ccccc12] ... true

State whether 1 exceeds HNF4a-screening_activity_(mean_of_n=2) recorded for OC1c2ccccc2CCc2ccccc21 [Prestw-Frag-2600, OC1c2ccccc2CCc2ccccc12] .
true

And then CCCCOc1cc(C(=O)OC)ccc1N [Prestw-Frag-2253, CCCCOc1cc(ccc1N)C(=O)OC] , what is it?
true

And then COc1cc2c(cc1OC)CNCC2 [Prestw-Frag-1276, COc1cc2CCNCc2cc1OC] , what is it?
false

And then CCOc1ccccc1O [Prestw-Frag-2995, CCOc1ccccc1O] , what is it?
true

And then O=C1c2ccccc2CN1c1ccccc1 [Prestw-Frag-2360, O=C1N(Cc2ccccc12)c1ccccc1] , what is it?
false

And then O=C(O)COc1ccccc1 [Prestw-Frag-2577, OC(=O)COc1ccccc1] , what is it?
false

And then OC1(c2ccc(Cl)cc2)CCNCC1 [Prestw-Frag-1365, OC1(CCNCC1)c1ccc(Cl)cc1] , what is it?
true

And then CCC1=C(C)CN(C(=O)NCCc2ccccc2)C1=O [Prestw-Frag-1075, CCC1=C(C)CN(C(=O)NCCc2ccccc2)C1=O] , what is it?
false

---

Target: Gal4-HNF4α (human HNF4α LBD) (Homo sapiens, UniProt P41235)
Construct: uniprot entry: P41235-1, residues 142-377; expressed in transfected cells; host or cells: HEK293T
Procedure text: Hybrid Gal4-HNF4α reporter gene assay in transiently transfected HEK293T cells
Assay type: cell-based
Condition info: Table S1, primary screening, 50 µM
Readout type: HNF4a-screening_activity_(mean_of_n=2)
Please give the numeric answer without any surrounding text.

Example results:
Nc1cccc(Nc2ncccn2)c1 ... 1.004
Nc1ccc([N+](=O)[O-])cc1Cl [Prestw-Frag-1543, Nc1ccc(cc1Cl)[N+]([O-])=O] ... 0.9851
OCC1CCCNC1 (centres unmarked) ... 1.103
c1ccc2c(c1)CCNCC2 ... 1.099

Give the measured HNF4a-screening_activity_(mean_of_n=2) of NC(=O)N1CCNCC1 .
1.067

---

Target: Gal4-HNF4α (human HNF4α LBD) (Homo sapiens, UniProt P41235)
Construct: uniprot entry: P41235-1, residues 142-377; expressed in transfected cells; host or cells: HEK293T
Sequence (P41235 142-377): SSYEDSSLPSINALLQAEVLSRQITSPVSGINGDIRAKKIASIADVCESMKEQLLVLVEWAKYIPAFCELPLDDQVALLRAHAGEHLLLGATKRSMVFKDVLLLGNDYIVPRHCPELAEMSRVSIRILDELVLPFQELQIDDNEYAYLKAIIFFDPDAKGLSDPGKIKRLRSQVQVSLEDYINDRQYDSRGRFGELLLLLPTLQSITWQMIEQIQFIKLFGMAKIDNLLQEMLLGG
Procedure text: Hybrid Gal4-HNF4α reporter gene assay in transiently transfected HEK293T cells
Assay type: cell-based
Condition info: Table S1, primary screening, 50 µM
Readout type: HNF4a-screening_activity_(mean_of_n=2)
Please give the numeric answer without any surrounding text.

Example results:
O=c1[nH]nc2ccccn12 [Prestw-Frag-1673, O=c1[nH]nc2ccccn12] ... 1.045
Cc1ccc(C#N)c(=O)[nH]1 [Prestw-Frag-2669, Cc1ccc(C#N)c(=O)[nH]1] ... 0.9816
Cn1nnnc1S ... 1.09

Give the measured HNF4a-screening_activity_(mean_of_n=2) of O=C1COc2ccccc21 .
1.58

And then Nc1ccn([C@H]2C[C@H](O)[C@@H](CO)O2)c(=O)n1 , what is it?
1.086

---

Target: Gal4-HNF4α (human HNF4α LBD) (Homo sapiens, UniProt P41235)
Construct: uniprot entry: P41235-1, residues 142-377; expressed in transfected cells; host or cells: HEK293T
Procedure text: Hybrid Gal4-HNF4α reporter gene assay in transiently transfected HEK293T cells
Assay type: cell-based
Condition info: Table S1, primary screening, 50 µM
Give 1 when the value for HNF4a-screening_activity_(mean_of_n=2) is at least 1. Give -1 when it is less.

Past entries and their recorded results:
CC(C)(C)NCC(O)c1ccccc1 (stereo not shown) ... 1
CN(C)CCNCc1ccccc1 ... 1
COC(=O)C(O)(c1ccccc1)C1CCCC1 (stereo not shown) ... 1
CN1CCN(c2cc(N)ncn2)CC1 ... 1
COC(=O)c1c[nH]c2ccccc12 [Prestw-Frag-2799, COC(=O)c1c[nH]c2ccccc12] ... -1

Form field: HNF4a-screening_activity_(mean_of_n=2) at least 1? Entry: OC(Cn1ccnc1)c1ccc(Cl)cc1Cl (stereo not shown)
1

And then Oc1cccc2c1CCCC2 , what is it?
-1

And then CCN1CCCC1CNC(=O)c1ccc(N)cc1 (stereo not shown) , what is it?
-1

And then CNCCN(C)C(c1ccccc1)c1ccccc1 , what is it?
1

---

Target: Gal4-HNF4α (human HNF4α LBD) (Homo sapiens, UniProt P41235)
Construct: uniprot entry: P41235-1, residues 142-377; expressed in transfected cells; host or cells: HEK293T
Procedure text: Hybrid Gal4-HNF4α reporter gene assay in transiently transfected HEK293T cells
Assay type: cell-based
Condition info: Table S1, primary screening, 50 µM
HNF4a-screening_activity_(mean_of_n=2) listing for selected molecules.
Please give the numeric answer without any surrounding text.

O=C(O)CNC(=O)c1ccccc1 ... 1.001

Now examine the next entry.
Give the measured HNF4a-screening_activity_(mean_of_n=2) of Clc1ccc2c(c1)Nc1ccccc1CC2 .
2.203

---

Target: Gal4-HNF4α (human HNF4α LBD) (Homo sapiens)
Construct: uniprot entry: P41235-1, residues 142-377; expressed in transfected cells; host or cells: HEK293T
Procedure text: Hybrid Gal4-HNF4α reporter gene assay in transiently transfected HEK293T cells
Type: cell-based
Condition info: Table S1, primary screening, 50 µM
I'd appreciate it if you marked entries Criterion met when HNF4a-screening_activity_(mean_of_n=2) is lower than 1 and Criterion not met when it is not.

Past entries and their recorded results:
CCOc1ccccc1C(=N)N [Prestw-Frag-3314, CCOc1ccccc1C(N)=N] ... Criterion not met
c1ccc(-n2ccc3ccccc32)cc1 [Prestw-Frag-3011, c1cc2ccccc2n1-c1ccccc1] ... Criterion met

As a next step, examine the compound that follows.
State whether 1 exceeds HNF4a-screening_activity_(mean_of_n=2) recorded for c1ccc(C(c2ccccc2)n2ccnc2)cc1 [Prestw-Frag-2868, c1cn(cn1)C(c1ccccc1)c1ccccc1] .
Criterion met

---

Target: Gal4-HNF4α (human HNF4α LBD) (Homo sapiens, UniProt P41235)
Construct: uniprot entry: P41235-1, residues 142-377; expressed in transfected cells; host or cells: HEK293T
Procedure text: Hybrid Gal4-HNF4α reporter gene assay in transiently transfected HEK293T cells
Format: cell-based
HNF4a-screening_activity_(mean_of_n=2) listing for selected molecules.
Please give the numeric answer without any surrounding text.

Example results:
CCOc1ccccc1OCC1CNCCO1 (stereo not shown) ... 0.7878
Oc1cccc2cccnc12 ... 0.6969
c1ccc2c3c([nH]c2c1)CCCC3 [Prestw-Frag-2780, C1CCc2c(C1)[nH]c1ccccc21] ... 0.7267

Now examine the next entry.
Give the measured HNF4a-screening_activity_(mean_of_n=2) of c1ccc(C2COCCN2)cc1 (stereo not shown) .
0.9945

---

HNF4a-screening_activity_(mean_of_n=2) listing for selected compounds.
Target: Gal4-HNF4α (human HNF4α LBD) (Homo sapiens, UniProt P41235)
Construct: uniprot entry: P41235-1, residues 142-377; expressed in transfected cells; host or cells: HEK293T
Sequence (P41235 142-377): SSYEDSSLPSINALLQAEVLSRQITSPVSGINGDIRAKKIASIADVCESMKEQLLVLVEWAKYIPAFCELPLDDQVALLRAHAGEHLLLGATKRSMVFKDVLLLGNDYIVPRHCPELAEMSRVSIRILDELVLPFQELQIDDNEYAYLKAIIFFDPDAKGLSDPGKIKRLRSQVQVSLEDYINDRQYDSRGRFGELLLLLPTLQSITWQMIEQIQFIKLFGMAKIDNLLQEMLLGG
Procedure text: Hybrid Gal4-HNF4α reporter gene assay in transiently transfected HEK293T cells
Format: cell-based
Condition info: Table S1, primary screening, 50 µM
Please give the numeric answer without any surrounding text.

NNC(=O)c1ccccc1 [Prestw-Frag-1420, NNC(=O)c1ccccc1] ... 1.278
COc1ccc(CN2CCNCC2)cc1 [Prestw-Frag-2212, COc1ccc(CN2CCNCC2)cc1] ... 1.195
CC(O)(c1ccccc1)c1ccccn1 (stereo not drawn) [Prestw-Frag-2237, CC(O)(c1ccccc1)c1ccccn1] ... 0.9394
Oc1cc(Cl)c(Cl)cc1Cl [Prestw-Frag-2898, Oc1cc(Cl)c(Cl)cc1Cl] ... 5.433
O=C(O)CC(c1ccccc1)c1ccccc1 [Prestw-Frag-3250, OC(=O)CC(c1ccccc1)c1ccccc1] ... 1.055
COc1ccc2cc[nH]c2c1 [Prestw-Frag-1372, COc1ccc2cc[nH]c2c1] ... 1.02

Give the measured HNF4a-screening_activity_(mean_of_n=2) of O=C(CCN1CCCCC1)c1ccccc1 [Prestw-Frag-1953, O=C(CCN1CCCCC1)c1ccccc1] .
0.8568

And then CCN1CCCC1CN (stereo not drawn) [Prestw-Frag-3671, CCN1CCCC1CN] , what is it?
1.171

And then CCCCc1nc(Cl)c(CO)[nH]1 [Prestw-Frag-3114, CCCCc1nc(Cl)c(CO)[nH]1] , what is it?
0.9053
